Each recorded value in this set is attributed to PubChem BioAssay AID1194.

System: Salmonella typhimurium Ames mutagenicity, literature compiled
Experiment: DSSTox (CPDBAS) Carcinogenic Potency Database Salmonella Mutagenicity
Active and inactive are the calls of the source.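 How the source made its calls: active means chemicals rated mutagenic or weakly mutagenic in the Salmonella bacterial test by one literature review, or positive overall by another; inconclusive means no clear call, values can overlap the other calls; inactive means the rest.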
MEASURED METRIC: outcome

smiles=COC(C)(C)C measured_metric=outcome recorded_value="inactive; active"
smiles=Cc1ccccc1N measured_metric=outcome recorded_value=active
smiles=CCOC(=O)CBr measured_metric=outcome recorded_value=active
smiles=S=C(NC1CCCCC1)NC1CCCCC1 measured_metric=outcome recorded_value="inactive; active"
smiles=CCCCN(CCCCO)N=O measured_metric=outcome recorded_value="active; inactive"

Provide each entry's outcome from the list below.
1. CC1(C)COC1=O
2. CCN(CC)N=O

active
active; inactive

Provide each entry's outcome from the list below.
1. Nc1cc(Cl)cc(C(=O)O)c1Cl
2. Cc1cccn2c1nc1ccc(N)nc12

active
active

---

Test system: Salmonella typhimurium Ames mutagenicity, literature compiled
Assay: DSSTox (CPDBAS) Carcinogenic Potency Database Salmonella Mutagenicity
Calls of active or inactive are those of the source.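 How the source made its calls: active means chemicals rated mutagenic or weakly mutagenic in the Salmonella bacterial test by one literature review, or positive overall by another; inconclusive means no clear call, values can overlap the other calls; inactive means the rest.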
Log the outcome using a class from y (active), n (inactive)

smiles=Clc1ccccc1 answer_label=n
smiles=Nc1ccc2nc3ccccn3c2n1 answer_label=y
smiles=Cc1cnc2ccc3c(nc(N)n3C)c2n1 answer_label=y
smiles=Cc1cccc(N)c1 answer_label=n
smiles=O=[N+]([O-])c1ccc(-c2cscn2)o1 answer_label=y

So what was the verdict on ClCCCl in this test?
y

So what was the verdict on CNC[C@H](O)c1ccc(O)c(O)c1 in this test?
n

So what was the verdict on Nc1c(Br)cc(Br)c2c1C(=O)c1ccccc1C2=O in this test?
y

---

System: Salmonella typhimurium Ames mutagenicity, literature compiled
Assay: DSSTox (CPDBAS) Carcinogenic Potency Database Salmonella Mutagenicity
Active and inactive are the calls of the source.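 Rule for the calls: active = chemicals rated mutagenic or weakly mutagenic in the Salmonella bacterial test by one literature review, or positive overall by another; inconclusive = no clear call, values can overlap the other calls; inactive = the rest.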
Log the outcome using a class from active, inactive

The examples below pair each entry with its known result.
compound=OB(O)O answer_label=inactive
compound=S=c1nc[nH]c2nc[nH]c12 answer_label=active
compound=CCNC(=S)NCC answer_label=inactive
compound=C=CC(=O)O answer_label=inactive
compound=O=CNc1nc(-c2ccc([N+](=O)[O-])o2)cs1 answer_label=active
compound=O=C1CCO1 answer_label=active
compound=Nc1c(Cl)cc([N+](=O)[O-])cc1Cl answer_label=active
compound=CC(=O)OC(OC(C)=O)c1ccc([N+](=O)[O-])o1 answer_label=active
compound=CN(C)/N=N/c1nc[nH]c1C(N)=O answer_label=active
compound=ClCCOCCCl answer_label=active

So what was the verdict on CC12CCC(CC1)C(C)(C)O2 in this test?
inactive

So what was the verdict on C=CC(OC(C)=O)c1ccc2c(c1)OCO2 (centres undefined) in this test?
active

So what was the verdict on CN1CCCC1=O in this test?
inactive

So what was the verdict on O=C1N(CCO)CCN1/N=C/c1ccc([N+](=O)[O-])o1 in this test?
active

So what was the verdict on N[C@@H](CCC(=O)O)C(=O)O in this test?
inactive

So what was the verdict on O=C1CCC(=O)O1 in this test?
inactive

So what was the verdict on C=CCc1ccc(OC)c(OC)c1 in this test?
inactive

---

System: Salmonella typhimurium Ames mutagenicity, literature compiled
Assay: DSSTox (CPDBAS) Carcinogenic Potency Database Salmonella Mutagenicity
Calls of active or inactive are those of the source.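 The calls were made as follows: active = chemicals rated mutagenic or weakly mutagenic in the Salmonella bacterial test by one literature review, or positive overall by another; inconclusive = no clear call, values can overlap the other calls; inactive = the rest.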
Log the outcome using a class from active, inactive

compound=Cc1cc(=O)[nH]c(=S)[nH]1 assayed_system="Salmonella typhimurium Ames mutagenicity, literature compiled" answer_label=inactive

So what was the verdict on CC[C@H]1CN2CCc3cc(OC)c(OC)cc3[C@@H]2C[C@@H]1C[C@H]1NCCc2cc(OC)c(OC)cc21 in this test?
inactive

So what was the verdict on C=CCc1ccc2c(c1)OCO2 in this test?
inactive

So what was the verdict on CCBr in this test?
active

So what was the verdict on Oc1ccc(Cl)cc1Cl in this test?
inactive
